Known IC50 of a selection of molecules
- TARGET_OR_TEST_SYSTEM: MAGL (Mus musculus)
- Sequence (O35678 whole entry): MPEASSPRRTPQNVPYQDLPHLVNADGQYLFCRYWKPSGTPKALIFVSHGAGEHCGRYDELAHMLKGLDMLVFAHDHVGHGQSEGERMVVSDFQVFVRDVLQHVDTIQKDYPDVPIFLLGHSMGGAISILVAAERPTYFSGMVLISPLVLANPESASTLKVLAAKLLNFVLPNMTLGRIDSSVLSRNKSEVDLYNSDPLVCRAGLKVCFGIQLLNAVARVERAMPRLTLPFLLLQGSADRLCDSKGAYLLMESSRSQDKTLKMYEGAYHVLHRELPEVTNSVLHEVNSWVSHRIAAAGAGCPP
- ASSAY_NAME: In vitro competitive activity-based protein profiling (FP-Rh), mouse MAGL
- Type: biochemical
- Set-up: from tissue; host or cells: mouse brain membrane fraction
- CONDITION_PARAMETERS: Table 1, mouse proteome, 30 min preincubation at 37° C.

Answered cases to consult:
MOLECULE | TARGET_OR_TEST_SYSTEM | QUANTITY_KIND | RESULT
CN(C)C(=O)ON1C(=O)CC(c2ccccc2)C1=O (centres unmarked) [Example 59] | MAGL (Mus musculus) | IC50 | > 10000 nM
O=C(ON1C(=O)CCC1=O)N1CCC(Cc2ccccc2)CC1 [Example 21] | MAGL (Mus musculus) | IC50 | 100 to 1000 nM
CC(C)(C)OC(=O)N1CCN(C(=O)ON2C(=O)CCC2=O)CC1 [Example 4] | MAGL (Mus musculus) | IC50 | > 10000 nM
O=C(ON1C(=O)CCC1=O)N1CCN(C(c2ccc(Br)cc2)c2ccc(Br)cc2)CC1 [Example 3] | MAGL (Mus musculus) | IC50 | < 100 nM

query: Return reported IC50 for target or system MAGL (Mus musculus), item O=C(ON1C(=O)CCC1=O)N1CCC(CCc2ccc(Cl)cc2)CC1 [Example 8] .
result: < 100 nM

###

- TARGET_OR_TEST_SYSTEM: UniProt:Q8R2Y0
- Sequence (Q8R2Y0 1-336): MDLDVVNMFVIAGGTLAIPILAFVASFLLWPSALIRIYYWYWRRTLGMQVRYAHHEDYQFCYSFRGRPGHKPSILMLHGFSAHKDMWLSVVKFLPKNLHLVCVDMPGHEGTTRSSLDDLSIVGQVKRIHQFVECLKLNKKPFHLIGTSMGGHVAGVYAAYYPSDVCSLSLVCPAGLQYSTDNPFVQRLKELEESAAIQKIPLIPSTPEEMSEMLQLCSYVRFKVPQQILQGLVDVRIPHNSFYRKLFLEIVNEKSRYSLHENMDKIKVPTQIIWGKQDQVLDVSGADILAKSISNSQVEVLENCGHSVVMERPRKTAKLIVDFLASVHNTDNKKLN
- ASSAY_NAME: In vitro competitive activity-based protein profiling (FP-Rh), mouse ABHD6
- Format: biochemical
- Set-up: from tissue; host or cells: mouse brain membrane fraction
- CONDITION_PARAMETERS: Table 2, mouse proteome, 30 min preincubation at 37° C.
- Method: In Vitro Competitive Activity-Based Protein Profiling. Proteomes (mouse brain membrane fraction or cell lysates) (50 μL, 1.0 mg/ml total protein concentration) were preincubated with varying concentrations of inhibitors at 37° C. After 30 min, FP-Rh (1.0 μL, 50 μM in DMSO) was added and the mixture was incubated for another 30 min at 37° C. Reactions were quenched with SDS loading buffer (50 μL—4×) and run on SDS-PAGE.
The entries below are paired with their reported IC50.

COMPOUND | QUANTITY_KIND | RESULT
CC(=O)NC1CCN(c2cc(Cl)ccc2CN2CCN(C(=O)ON3C(=O)CCC3=O)CC2)C1 (centres unmarked) | IC50 | 1000 to 10000 nM
Cc1cc(-c2ccccc2)ccc1CN1CCN(C(=O)ON2C(=O)CCC2=O)CC1 | IC50 | 100 to 1000 nM
Cc1nc(-c2ccccc2)oc1CN1CCN(C(=O)ON2C(=O)CCC2=O)CC1 | IC50 | 1000 to 10000 nM
O=C(ON1C(=O)CCC1=O)N1CCN(Cc2ccc(Cl)cc2N2CCC3(CCOCC3)C2)CC1 | IC50 | 1000 to 10000 nM
O=C(ON1C(=O)CCC1=O)N1CCN(Cc2ccc(C(F)(F)F)cc2N2CCCC2)CC1 | IC50 | 1000 to 10000 nM
O=C(ON1C(=O)CCC1=O)N1CCN(Cc2cccc(Cl)c2N2CCOCC2)CC1 | IC50 | 1000 to 10000 nM

query: // Input: O=C(ON1C(=O)CCC1=O)N1CCN(Cc2cnc3ccc(Cl)cn23)CC1 . Output its IC50 only.
result: 1000 to 10000 nM

query: Supply reported IC50 belonging to this compound: O=C1COc2ccc(CN3CCN(C(=O)ON4C(=O)CCC4=O)CC3)cc2N1
result: 1000 to 10000 nM

query: Write down IC50 measured for item O=C(ON1C(=O)CCC1=O)N1CCN(Cc2ccc(-c3ccccc3)cc2C(=O)N2CCCC2)CC1
result: 1000 to 10000 nM

Data credit: patent US9567302B2
